- measured-target: WDR9 (Homo sapiens)
- Sequence (Q9NSI6 1313-1418 limits assumed): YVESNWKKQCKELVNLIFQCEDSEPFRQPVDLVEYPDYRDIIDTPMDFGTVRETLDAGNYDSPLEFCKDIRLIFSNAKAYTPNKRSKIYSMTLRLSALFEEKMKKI
- method-description: Bromodomain binding assay: WDR9
pKd: −log10 of the molar value.
measured-attribute: pKd

1. CCOc1cc(C(=O)N[C@H]2CC[C@H](O)CC2)ccc1Nc1cc2c(cn1)N(C)C(=O)c1ccccc1N2C: < 4.70
2. CCOc1cc(C(=O)N2CCC(N3CCCC3)CC2)ccc1Nc1cc2c(cn1)N(C)C(=O)c1ccccc1N2C: < 4.70

----------
- measured-target: recombinant human ERK5 catalytic domain (Homo sapiens, UniProt Q13164)
- Construct: Recombinant human ERK5 catalytic domain radiometric assays; purchased Reaction Biology, Corp (Malvern, Pa.), which ran the assay as a service
- Sequence (Q13164 55-347 limits assumed): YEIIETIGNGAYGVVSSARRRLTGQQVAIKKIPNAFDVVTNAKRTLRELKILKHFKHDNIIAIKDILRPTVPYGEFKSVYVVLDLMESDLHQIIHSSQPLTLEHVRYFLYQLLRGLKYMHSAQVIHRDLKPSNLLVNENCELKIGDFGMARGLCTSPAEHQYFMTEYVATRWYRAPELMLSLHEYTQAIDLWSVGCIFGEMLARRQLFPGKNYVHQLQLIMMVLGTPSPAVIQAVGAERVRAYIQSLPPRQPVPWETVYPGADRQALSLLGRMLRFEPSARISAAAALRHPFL
- method-description: Recombinant human ERK5 radiometric (HotSpot) assay
- Assay type: biochemical
pIC50: −log10 of the molar value.
measured-attribute: pIC50

1) CCOc1cc(C(=O)N2CCC(=O)CC2)ccc1Nc1cc2c(cn1)N(C)C(=O)c1ccccc1N2C: > 7.70
